- target_under_test: Neuropeptide S receptor (Homo sapiens) (UniProt Q6W5P4)
- Sequence (Q6W5P4 whole entry, looked up): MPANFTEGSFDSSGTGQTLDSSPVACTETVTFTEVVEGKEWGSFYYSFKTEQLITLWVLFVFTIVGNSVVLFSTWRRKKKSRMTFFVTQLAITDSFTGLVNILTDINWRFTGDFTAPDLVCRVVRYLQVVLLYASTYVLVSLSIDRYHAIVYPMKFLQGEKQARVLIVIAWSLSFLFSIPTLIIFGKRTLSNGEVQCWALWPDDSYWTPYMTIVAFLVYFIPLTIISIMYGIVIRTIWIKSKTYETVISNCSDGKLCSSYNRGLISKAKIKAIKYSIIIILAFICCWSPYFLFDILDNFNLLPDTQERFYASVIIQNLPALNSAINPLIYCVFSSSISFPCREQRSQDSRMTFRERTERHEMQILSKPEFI
- protocol: Confirmation Concentration-Response Assay for Antagonists of the Neuropeptide S Receptor: Calcium Signal Transduction, SAR for Probe
- test_context: CHO-NPSR cells, NPS-induced calcium fluorescence, FDSS; series mostly up to 50.9 µM
Records with an inconclusive call do not appear. Calls of active or inactive are those of the source. The call rests on the fitted dose curve; in most records, active means well fitted antagonist curve with a large enough effect in the main read-out, with a control signal flat; inconclusive means small, poorly fitted or top-dose-only effect; inactive means no such curve, though single readings can be large or run the other way.
Respond using exactly one of the listed classes: active, inactive

Assay outcome for Cc1c(P(=S)(c2ccccc2)c2ccccc2)c2ccccc2n1C : what was it?
inactive

Look up the recorded call for Cc1c(P(=S)(c2ccccc2)c2ccccc2)[n+]2ccccc2n1CCc1ccccc1 in this test.
active

Would you mind telling me which call this test gave Cc1c(P(=S)(c2ccccc2)c2ccccc2)[n+]2ccccc2n1CCCc1ccccc1 ?
active

Answer briefly: the call reported for Cc1nc2ccccn2c1P(=S)(c1ccccc1)c1ccccc1 in this assay.
active

// param item: CCOC(=O)c1c(-n2c(C)cc(C=C3C(=O)NC(=S)NC3=O)c2C)sc2c1CCCC2 ; yields the recorded call
active

###

- target_under_test: Neuropeptide S receptor (Homo sapiens)
- protocol: Confirmation Concentration-Response Assay for Antagonists of the Neuropeptide S Receptor: Calcium Signal Transduction, SAR for Probe
- test_context: CHO-NPSR cells, NPS-induced calcium fluorescence, FDSS; series mostly up to 50.9 µM
Inconclusive results are not listed. Active and inactive are the calls of the source. Calls come from the whole dose curve; as a rule, active = well fitted antagonist curve with a large enough effect in the main read-out, with a control signal flat; inconclusive = small, poorly fitted or top-dose-only effect; inactive = no such curve, though single readings can be large or run the other way.
Returns: one label drawn from true (1) (active), false (0) (inactive)

Worked set:
>  <molecule>
C=C(C=O)C[C@@H]1C[C@H](O)C2OC3C[C@]4(C)OC5/C=C\CC6OC7C(CC=CCC6OC5CCCC4OC3CC2O1)OC1CC2OC3CC(=O)OC3C[C@@H](C)C[C@@]2(C)OC1C[C@@H]7C (stereo partly specified)

>  <class_assignment>
true (1)

$$$$
>  <molecule>
C=C1C(=O)O[C@@H]2C[C@@H](C)[C@@H]3C=CC(=O)[C@@]3(C)[C@@H](OC(=O)CC(=O)O[C@H]3[C@@H]4C(=C)C(=O)O[C@@H]4C[C@@H](C)[C@@H]4C=CC(=O)[C@]43C)[C@H]12

>  <class_assignment>
true (1)

$$$$
>  <molecule>
Cc1c(P(=S)(c2ccccc2)c2ccccc2)[n+]2ccccc2n1C/C=C/c1ccccc1

>  <class_assignment>
true (1)

$$$$
>  <molecule>
CC(=O)Nc1cc([As](=O)(O)O)ccc1O

>  <class_assignment>
false (0)

$$$$
>  <molecule>
S=P(c1ccccc1)(c1ccccc1)c1c[n+](Cc2ccccc2)c2ccccn12

>  <class_assignment>
true (1)

$$$$

Which outcome was assigned to CNc1ccc2oc(C[C@H]3O[C@@]4(CC[C@H]3C)O[C@H]([C@H](C)C(=O)c3ccc[nH]3)[C@H](C)C[C@H]4C)nc2c1C(=O)O in this test?
true (1)

Reference source: PubChem BioAssay AID2567
